# target-desc: human C5 complement protein (Homo sapiens)
# Sequence (P01031 19-1676): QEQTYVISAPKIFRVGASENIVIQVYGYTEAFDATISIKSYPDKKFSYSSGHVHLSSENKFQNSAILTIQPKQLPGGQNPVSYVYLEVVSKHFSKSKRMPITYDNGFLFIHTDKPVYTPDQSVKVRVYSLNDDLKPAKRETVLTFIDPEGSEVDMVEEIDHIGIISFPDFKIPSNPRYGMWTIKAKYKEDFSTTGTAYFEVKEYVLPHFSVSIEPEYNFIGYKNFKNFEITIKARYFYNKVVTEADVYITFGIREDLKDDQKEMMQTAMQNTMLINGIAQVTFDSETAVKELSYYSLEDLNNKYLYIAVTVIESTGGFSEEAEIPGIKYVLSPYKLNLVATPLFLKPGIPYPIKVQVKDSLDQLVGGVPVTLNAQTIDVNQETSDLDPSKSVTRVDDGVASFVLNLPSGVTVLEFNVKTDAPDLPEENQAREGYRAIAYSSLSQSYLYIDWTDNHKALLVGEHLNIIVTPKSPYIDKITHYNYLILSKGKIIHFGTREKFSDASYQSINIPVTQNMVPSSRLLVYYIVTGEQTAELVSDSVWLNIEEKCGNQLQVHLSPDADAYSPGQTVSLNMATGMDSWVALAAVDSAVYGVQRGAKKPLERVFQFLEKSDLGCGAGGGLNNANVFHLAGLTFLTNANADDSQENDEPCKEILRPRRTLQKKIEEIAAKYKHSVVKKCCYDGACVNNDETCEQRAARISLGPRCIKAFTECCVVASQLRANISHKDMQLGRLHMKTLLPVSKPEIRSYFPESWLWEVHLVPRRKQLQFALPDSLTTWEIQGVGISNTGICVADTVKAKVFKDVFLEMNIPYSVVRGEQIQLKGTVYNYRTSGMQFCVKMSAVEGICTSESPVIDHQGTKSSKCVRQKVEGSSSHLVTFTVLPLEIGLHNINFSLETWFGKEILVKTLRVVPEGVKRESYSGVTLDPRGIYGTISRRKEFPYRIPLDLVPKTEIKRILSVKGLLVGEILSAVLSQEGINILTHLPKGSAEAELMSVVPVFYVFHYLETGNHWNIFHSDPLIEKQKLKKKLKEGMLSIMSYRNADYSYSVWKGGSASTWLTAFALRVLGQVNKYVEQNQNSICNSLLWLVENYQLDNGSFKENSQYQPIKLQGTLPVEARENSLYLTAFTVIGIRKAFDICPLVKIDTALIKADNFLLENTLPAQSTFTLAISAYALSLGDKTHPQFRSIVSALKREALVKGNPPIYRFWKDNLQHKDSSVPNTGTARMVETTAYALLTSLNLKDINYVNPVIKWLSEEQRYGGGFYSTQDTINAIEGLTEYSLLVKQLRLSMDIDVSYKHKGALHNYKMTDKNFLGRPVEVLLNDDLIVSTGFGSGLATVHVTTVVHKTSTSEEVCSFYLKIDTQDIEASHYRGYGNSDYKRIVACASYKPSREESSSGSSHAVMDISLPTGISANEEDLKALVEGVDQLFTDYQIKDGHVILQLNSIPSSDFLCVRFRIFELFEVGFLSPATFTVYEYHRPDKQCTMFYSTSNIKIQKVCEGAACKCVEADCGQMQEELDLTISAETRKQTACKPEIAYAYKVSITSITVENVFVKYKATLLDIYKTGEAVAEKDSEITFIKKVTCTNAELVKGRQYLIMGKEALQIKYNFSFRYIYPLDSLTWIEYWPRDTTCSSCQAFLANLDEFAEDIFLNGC
# method: Surface plasmon resonance (SPR), immobilized human C5, 37° C. (Example 12, Table 21)
# Type: binding
# settings: where a range of compound concentrations were analyzed, the lowest value obtained
metric: Kd (nM)

>  <compound>
CCCCCOc1cc(N2CCCN(Cc3ccc(CC(=O)N4CCOC(COC)C4)cc3OC)C2=O)ccc1OC (centres unmarked)

>  <recorded-number>
1.9

$$$$
>  <compound>
CCCC(F)(F)COc1cc(N2CCCN(Cc3ccc(CC(=O)N4CCCOCC4)cc3OC)C2=O)ccc1OC

>  <recorded-number>
2.6

$$$$
>  <compound>
CCCCCOc1cc(N2CCCN(Cc3cccc4c3c(C)cn4CC(=O)N(C)C)C2=O)ccc1OC

>  <recorded-number>
0.9

$$$$
>  <compound>
CCCCCOc1cc(N2CCCN(Cc3ccc(CN(CC)CC)cc3OC)C2=O)ccc1OC

>  <recorded-number>
27.5

$$$$
>  <compound>
CCCCCOc1cc(N2CCN(Cc3cccc4c3OCO4)C2=O)ccc1OC

>  <recorded-number>
394

$$$$
>  <compound>
CCCCCOc1cc(N2CCCN(Cc3ccccc3Cl)C2=O)ccc1OC

>  <recorded-number>
74.5

$$$$
>  <compound>
CCCCCOc1cc(N2CCCN([C@@H](C)c3ccnc4c3ccn4CC(=O)N3CCCOCC3)C2=O)ccc1OC

>  <recorded-number>
10.5

$$$$
>  <compound>
COc1ccc(N2CCCN(Cc3cccc4c3ccn4CC(=O)N(C)C)C2=O)cc1OCCCC(C)(F)F

>  <recorded-number>
14

$$$$
>  <compound>
CCCCCOc1cc(N2CCCN(Cc3cccc4c3ccn4CC(=O)N3CCOC(C)(C)C3)C2=O)ccc1OC

>  <recorded-number>
1.8

$$$$
>  <compound>
CCCCCOc1cc(N2CCCN(Cc3cccc4c3ccn4C3CCN(C)C3=O)C2=O)ccc1OC (centres unmarked)

>  <recorded-number>
3

$$$$
>  <compound>
CCCCCOc1cc(N2CCCN(Cc3ccc(CC(=O)N4CCCOCC4)cc3OC)C2=O)ccc1OC

>  <recorded-number>
2.1

$$$$
>  <compound>
CCCCCOc1cc(N2CCCN(Cc3cccnc3OC)C2=O)ccc1OC

>  <recorded-number>
27.5

$$$$
>  <compound>
CCCCCOc1cc(N2CCN(Cc3cccnc3OC)C2=O)ccc1OC

>  <recorded-number>
188

$$$$
>  <compound>
CCCCCOc1cc(N2CCN(Cc3ccnc4c3ccn4CC(=O)N3CCOCC3)C2=O)ccc1OC

>  <recorded-number>
106

$$$$
>  <compound>
CCCCCOc1cc(N2CCCN(Cc3cccc4c3ccn4CC3(O)CCN(C)CC3)C2=O)ccc1OC

>  <recorded-number>
2.9

$$$$
>  <compound>
CCCCCOc1cc(N2CCCN(Cc3cc(F)ccc3Cl)C2=O)ccc1OC

>  <recorded-number>
174

$$$$
>  <compound>
CCCCCOc1cc(N2CCCN(Cc3cccc4c3ccn4CC(=O)N3CCNC(=O)C3)C2=O)ccc1OC

>  <recorded-number>
5

$$$$
